Test system: ubiquinone binding site of complex I (IQ)
Assay: High-throughput screen: ROS production from ubiquinone binding site of complex I (IQ), isolated skeletal muscle mitochondria
Type: biochemical, rat
Settings: Table 8; percent change in ROS from DMSO controls
READOUT: IQ

COMPOUND	TARGET_UNDER_TEST	IQ
O=C(O)CSc1cccc(C(=O)Nc2ccc(Br)cc2)c1 [Compound 47]	ubiquinone binding site of complex I (IQ)	−0.1
Fc1ccc(N2CCN(CC(c3ccccc3)c3ccccc3)CC2)cc1 [Compound 39]	ubiquinone binding site of complex I (IQ)	2.7
O=C(Nc1nn[nH]n1)C1CCCCC1 [Compound 76]	ubiquinone binding site of complex I (IQ)	−24

Q. Give IQ for Cc1ccc(S(=O)(=O)Nc2nnc(C)s2)cc1 [Compound 27] tested on ubiquinone binding site of complex I (IQ).
A. 0.0

Q. Please report the measured IQ for Cc1ccccc1NS(=O)(=O)c1ccc(-c2ccc(S(=O)(=O)Nc3ccccc3C)cc2)cc1 [Compound 12] tested on ubiquinone binding site of complex I (IQ).
A. −20.7

Q. Enter measured IQ, system ubiquinone binding site of complex I (IQ), for the compound shown: COc1ccccc1/C=C/c1nc(O)nc(O)c1[N+](=O)[O-] [Compound 16]
A. −5.4

Q. Fill: IQ (ubiquinone binding site of complex I (IQ)) for this compound CC(C)(C)C1=NN(c2c(Cl)cc(Cl)cc2Cl)C(=O)C1 [Compound 3]
A. −52.4

Q. Report IQ from ubiquinone binding site of complex I (IQ) testing of O=C(O)/C=C/C(=O)Nc1ccc(/C=C/c2ccccc2)cc1 [Compound 49]
A. 1.7

====

Molecular target: flavin binding site of complex I (IF) (Rattus norvegicus, UniProt Q5XIH3)
Construct: freshly isolated muscle mitochondria were assayed; from tissue; host or cells: rat skeletal muscle mitochondria (Wistar, Harlan Laboratories)
Sequence (Q5XIH3 21-464 limits assumed, one chain of several): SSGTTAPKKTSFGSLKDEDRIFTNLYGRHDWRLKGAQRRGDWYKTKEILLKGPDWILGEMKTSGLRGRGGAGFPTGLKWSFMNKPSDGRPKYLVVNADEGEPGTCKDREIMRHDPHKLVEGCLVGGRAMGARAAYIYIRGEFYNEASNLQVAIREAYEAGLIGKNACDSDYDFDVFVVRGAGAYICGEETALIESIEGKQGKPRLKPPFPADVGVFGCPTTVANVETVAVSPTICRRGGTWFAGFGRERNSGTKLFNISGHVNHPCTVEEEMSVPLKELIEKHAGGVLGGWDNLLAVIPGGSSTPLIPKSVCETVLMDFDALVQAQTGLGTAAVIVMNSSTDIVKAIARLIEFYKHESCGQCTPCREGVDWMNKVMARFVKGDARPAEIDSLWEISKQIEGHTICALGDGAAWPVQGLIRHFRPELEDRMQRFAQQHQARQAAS
Test: High-throughput screen: ROS production from flavin binding site of complex I (IF)
Format: biochemical
Settings: Table 8; percent change in ROS from DMSO controls
READOUT: IF
Could you keep your reply to the number by itself?

Recorded results for 3 compounds are shown here.
COMPOUND	IF
Fc1ccc(N2CCN(CC(c3ccccc3)c3ccccc3)CC2)cc1 [Compound 39]	−0.9
O=C(O)C1CCCCC1C(=O)NC1CCCCCCC1 (stereo not shown) [Compound 30]	−36.9
O=C(O)C1CCCCC1C(=O)NC1CCCCC1 (stereo not shown) [Compound 19]	−25.6

Q. Given the compound O=[N+]([O-])c1ccc(Oc2ccc(S(=O)(=O)Nc3ccc(F)cc3)cc2)cc1 [Compound 84] , write its reported IF.
A. −1.4

====

Molecular target: outer ubiquinone binding site of complex III (IIIQO) (Rattus norvegicus, UniProt P00159+P20788)
Construct: freshly isolated muscle mitochondria were assayed; from tissue; host or cells: rat skeletal muscle mitochondria (Wistar, Harlan Laboratories)
Experiment: High-throughput screen: ROS production from outer ubiquinone binding site of complex III (IIIQO)
Type: biochemical
Conditions: Table 8; percent change in ROS from DMSO controls
Categories are defined by ranges of IIIQO, namely 0: < -1; 1: ≥ -1 and < 0.8; 2: ≥ 0.8

Here's what some known entries look like.
COMPOUND	CATEGORY_LABEL
Cc1ccc(S(=O)(=O)Nc2nnc(C)s2)cc1	1
O=C(O)C1CCCCC1C(=O)NC1CCCCC1 (stereo not shown)	2
CN(C)CCN(Cc1ccccc1)Cc1ccccc1Br	0
O=C(COc1ccc(Cl)cc1Cl)Nc1ccc(F)cc1F	0
CC(C)(C)NS(=O)(=O)c1ccc2c(c1)C(=O)c1ccccc1C2=O	2

Q. Lab note: which band did O=[N+]([O-])c1ccc(Oc2ccc(S(=O)(=O)Nc3ccc4c(c3)OCCO4)cc2)cc1 land in?
A. 1

Q. Band of CC(=O)Nc1ccc(S(=O)(=O)Nc2cccc(C)c2)cc1 ?
A. 0

Q. Quick check: band for C=CCSc1nc(N)c(C#N)c(CC)c1C#N
A. 2

Q. Band for the recorded IIIQO of Fc1ccc(N2CCN(CC(c3ccccc3)c3ccccc3)CC2)cc1 ?
A. 0

====

Biological target: succinate dehydrogenase/complex II (SDH) (Rattus norvegicus, UniProt P21913+Q641Z9+Q6PCT8+Q920L2)
Construct: freshly isolated muscle mitochondria were assayed; from tissue; host or cells: rat skeletal muscle mitochondria (Wistar, Harlan Laboratories)
Sequence (Q920L2 35-656): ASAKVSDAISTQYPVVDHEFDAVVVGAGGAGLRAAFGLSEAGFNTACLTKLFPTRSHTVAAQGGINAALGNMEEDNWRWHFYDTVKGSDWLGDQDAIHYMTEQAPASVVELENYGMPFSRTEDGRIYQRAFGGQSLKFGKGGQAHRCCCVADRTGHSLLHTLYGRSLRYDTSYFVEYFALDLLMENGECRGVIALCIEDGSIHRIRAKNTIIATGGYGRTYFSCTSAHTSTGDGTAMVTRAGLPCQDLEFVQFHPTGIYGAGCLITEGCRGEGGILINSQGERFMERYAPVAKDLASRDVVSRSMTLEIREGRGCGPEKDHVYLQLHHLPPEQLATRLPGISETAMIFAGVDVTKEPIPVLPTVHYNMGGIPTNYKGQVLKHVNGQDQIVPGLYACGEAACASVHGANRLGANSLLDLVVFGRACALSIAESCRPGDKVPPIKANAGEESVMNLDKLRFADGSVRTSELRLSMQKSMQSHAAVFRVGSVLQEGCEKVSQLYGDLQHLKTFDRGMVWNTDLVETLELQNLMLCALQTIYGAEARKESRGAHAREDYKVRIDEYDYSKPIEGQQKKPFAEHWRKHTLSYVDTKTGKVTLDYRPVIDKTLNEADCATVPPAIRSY
Sequence (P21913 31-282): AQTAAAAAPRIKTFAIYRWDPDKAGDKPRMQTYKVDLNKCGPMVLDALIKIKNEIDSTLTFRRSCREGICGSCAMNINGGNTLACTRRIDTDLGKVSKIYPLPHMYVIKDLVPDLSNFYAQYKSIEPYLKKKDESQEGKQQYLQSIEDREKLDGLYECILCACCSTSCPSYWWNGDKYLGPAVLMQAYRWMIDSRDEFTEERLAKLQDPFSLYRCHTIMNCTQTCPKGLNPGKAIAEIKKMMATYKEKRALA
Sequence (Q641Z9 30-169 limits assumed): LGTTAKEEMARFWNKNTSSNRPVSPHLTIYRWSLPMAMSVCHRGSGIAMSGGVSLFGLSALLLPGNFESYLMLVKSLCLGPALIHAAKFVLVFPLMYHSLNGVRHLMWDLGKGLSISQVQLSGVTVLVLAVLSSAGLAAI
Sequence (Q6PCT8 57-159): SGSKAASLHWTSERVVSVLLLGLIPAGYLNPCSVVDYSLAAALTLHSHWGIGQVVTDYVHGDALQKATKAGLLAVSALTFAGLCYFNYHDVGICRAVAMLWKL
Test: High-throughput screen: ROS production from succinate dehydrogenase/complex II (SDH)
Type: biochemical
Conditions: Table 9; percent change in ROS from DMSO controls
Each entry below carries its recorded SDH.
// response body must contain only the number

Example molecules with recorded SDH:
MOLECULE	SDH
CC(C)(C)C1=NN(c2c(Cl)cc(Cl)cc2Cl)C(=O)C1	−6.8
O=C(Nc1ccccc1F)[C@@H]1C2C=CC(C2)[C@@H]1C(=O)O (stereo partly shown)	−0.7
CCCN(CCO)Cc1ccc2c(c1)c1ccccc1n2CC	−2.7

Q. Report SDH for CC1=CC(C)(C)N(Cc2ccc([N+](=O)[O-])cc2)c2ccccc21
A. 1.2

Q. Give the reported SDH for this molecule. C=CCSc1nc(N)c(C#N)c(CC)c1C#N
A. 2.1

Q. Supply reported SDH belonging to this molecule: CC(=O)Nc1ccc(S(=O)(=O)Nc2cccc(C)c2)cc1
A. 1.0

Q. Please supply the value of reported SDH for the item COc1cc(CN(CCN(C)C)Cc2ccccc2)cc(OC)c1
A. −6.0

Q. // fetch SDH given entry O=C(Nc1ccc(Br)cc1)[C@@H]1C2C=CC(C2)[C@@H]1C(=O)O (stereo partly shown)
A. 1.3

Q. Provide one value: measured SDH of Oc1nnc(Cc2ccncc2)c2ccccc12
A. −27.4

Q. Provide only the value of recorded SDH for CC(C)(C)NS(=O)(=O)c1ccc2c(c1)C(=O)c1ccccc1C2=O
A. −8.2

====

Biological target: outer ubiquinone binding site of complex III (IIIQO) (Rattus norvegicus, UniProt P00159+P20788)
Construct: freshly isolated muscle mitochondria were assayed; from tissue; host or cells: rat skeletal muscle mitochondria (Wistar, Harlan Laboratories)
Experiment: High-throughput screen: ROS production from outer ubiquinone binding site of complex III (IIIQO)
Format: biochemical
Settings: Table 8; percent change in ROS from DMSO controls
READOUT: IIIQO
Answer using only a numeral; do not append any unit.

COMPOUND	IIIQO
Cc1cc(OCC(O)CN(Cc2ccccc2)C(C)(C)C)ccc1[N+](=O)[O-] (stereo not shown)	−10
CCN1CCN(C/C=C/c2ccc(N(C)C)cc2)CC1	−5.7
CC(C)Cc1ccc(C(C)C(=O)Nc2ccccc2O)cc1 (stereo not shown)	−3.6
COc1ccc(C2C(C#N)=C(N)Oc3c2c(=O)oc2ccccc32)cc1O (stereo not shown)	−7.6

Q. For CC1=CC(C)(C)N(Cc2ccc([N+](=O)[O-])cc2)c2ccccc21 , write its IIIQO.
A. −32.1

Q. Please give the documented IIIQO of Cc1ccc(C(C)C)c(OCC(O)CN2CCN(Cc3ccccc3)CC2)c1.Cl.Cl (stereo not shown)
A. −9.9

Q. Determine from records and report IIIQO for CCN1CCN(C2CCC(C(C)(C)C)CC2)CC1 (stereo not shown)
A. −6.2

====

Target: outer ubiquinone binding site of complex III (IIIQO) (Rattus norvegicus, UniProt P00159+P20788)
Construct: freshly isolated muscle mitochondria were assayed; from tissue; host or cells: rat skeletal muscle mitochondria (Wistar, Harlan Laboratories)
Assay: High-throughput screen: ROS production from outer ubiquinone binding site of complex III (IIIQO)
Format: biochemical
Details: Table 7; percent change in ROS from DMSO controls; read-out: IIIQO
The compounds listed here are annotated with their inhibition at 2.5 µM.
Form field: result (number plus unit)

COMPOUND	inhibition at 2.5 µM
CC(C)(C)C1=NN(c2c(Cl)cc(Cl)cc2Cl)C(=O)C1	-1%
CCCN(CCO)Cc1ccc2c(c1)c1ccccc1n2CC	7.5%
CC(=O)Nc1ccc(S(=O)(=O)Nc2cccc(C)c2)cc1	2.8%

Q. For the compound Fc1ccc(N2CCN(CC(c3ccccc3)c3ccccc3)CC2)cc1 , report inhibition at 2.5 µM.
A. 26.8%

Q. Please list inhibition at 2.5 µM recorded for the compound C=C(C)CN(CC)Cc1cc([N+](=O)[O-])ccc1Cl
A. 20.2%

====

Target: outer ubiquinone binding site of complex III (IIIQO) (Rattus norvegicus, UniProt P00159+P20788)
Construct: freshly isolated muscle mitochondria were assayed; from tissue; host or cells: rat skeletal muscle mitochondria (Wistar, Harlan Laboratories)
Assay: High-throughput screen: ROS production from outer ubiquinone binding site of complex III (IIIQO)
Assay type: biochemical
Settings: Table 8; percent change in ROS from DMSO controls
READOUT: IIIQO
Give a plain numeric answer without units written out.

COMPOUND	DATA_VALUE
CCN(CC)CCN(CC)Cc1ccc(Cl)cc1Cl [Compound 25]	−3.3
O=C(Nc1ccc(Br)cc1)[C@@H]1C2C=CC(C2)[C@@H]1C(=O)O (some centres unmarked) [Compound 28]	−2.5
CCCCN(Cc1ccccc1)Cc1cc(OC)c(OC)cc1[N+](=O)[O-] [Compound 79]	−19
O=C(O)CCC(=O)Nc1ccc(-c2nc3ccccc3o2)cc1 [Compound 50]	2.5
CC(C)(C)C1=NN(c2c(Cl)cc(Cl)cc2Cl)C(=O)C1 [Compound 3]	1.0
CC1=CC(C)C(C2OCC(CN3CCCCC3)O2)C(C)C1 (centres unmarked) [Compound 13]	−9.0
CN(C)CCCN(CCCN(C)C)Cc1cccnc1 [Compound 33]	6.1
O=C(O)/C=C/C(=O)Nc1ccc(/C=C/c2ccccc2)cc1 [Compound 49]	10.0

Consider the record given below.
Q. Return the recorded IIIQO value; entry: O=S(=O)(Nc1ccc(Br)cc1)c1ccc(C2CCCCC2)cc1 [Compound 8]
A. 7.6
